# credit: the NIST ThermoML archive (doi:10.1021/je0500431)

conditions: 323.15 K, Ring tensiometer
metric_name: surface tension liquid-gas (mN/m)

Below, each entry is followed by its recorded surface tension liquid-gas result.
compound: CCC(C)O (configuration not stated)
surface tension liquid-gas / mN/m: 20.76
//
compound: CCCC(C)O (configuration not stated)
surface tension liquid-gas / mN/m: 21.16
//
compound: CCCCCO
surface tension liquid-gas / mN/m: 23.3

(A) CCCCO
(B) OCc1ccccc1
Request: Between A and B , which one has the lower reported surface tension liquid-gas value? Return value: the label identifying the chosen record.
Result: A
(A: 21.53 mN/m, B: 36.18 mN/m)

---

details: 308.15 K, Ring tensiometer
metric_name: surface tension liquid-gas (mN/m)

Below, each entry is followed by its recorded surface tension liquid-gas result.
compound: CCC(C)O (configuration not stated) [butan-2-ol]
display_unit: mN/m
surface tension liquid-gas: 21.94
--
compound: CCCCCO [pentan-1-ol]
display_unit: mN/m
surface tension liquid-gas: 24.49
--
compound: CC(C)O [propan-2-ol]
display_unit: mN/m
surface tension liquid-gas: 20.2
--
compound: CCCCO [butan-1-ol]
display_unit: mN/m
surface tension liquid-gas: 22.78

(I) CCCC(C)O (configuration not stated) [pentan-2-ol]
(II) OCc1ccccc1 [benzenemethanol]
Request: Between I and II , which one has the lower reported surface tension liquid-gas value? Return value: the label identifying the chosen record.
Result: I

---

conditions: 303.15 K, Ring tensiometer
metric_name: surface tension liquid-gas (mN/m)

Below, each entry is followed by its recorded surface tension liquid-gas result.
compound: CCCO [propan-1-ol]
display_unit: mN/m
observed_value: 22.9
--
compound: CCCCCO [pentan-1-ol]
display_unit: mN/m
observed_value: 24.86
--
compound: CC(C)O [propan-2-ol]
display_unit: mN/m
observed_value: 20.55

(P) OCc1ccccc1 [benzenemethanol]
(Q) CCCCO [butan-1-ol]
Request: Between P and Q , which one has the lower reported surface tension liquid-gas value? Return value: the label identifying the chosen record.
Result: Q
(Q: 23.26 mN/m, P: 38.12 mN/m)

---

settings: 318.15 K; 101.33 kPa; Liquid
metric_name: mass density (kg/m3)

compound: CCCO [propan-1-ol]
mass density [kg/m3]: 783.2
--
compound: CCC(C)O (configuration not stated) [butan-2-ol]
mass density [kg/m3]: 785.5
--
compound: CCCCCO [pentan-1-ol]
mass density [kg/m3]: 796.6
--
compound: OCc1ccccc1 [benzenemethanol]
mass density [kg/m3]: 1025.8
--
compound: CCCC(C)O (configuration not stated) [pentan-2-ol]
mass density [kg/m3]: 788.8
--
compound: CCCCO [butan-1-ol]
mass density [kg/m3]: 790.9
--
compound: CC(C)O [propan-2-ol]
mass density [kg/m3]: 763.3

---

conditions: 298.15 K; 101.33 kPa; Liquid
metric_name: mass density (kg/m3)

compound: CCC(C)O (configuration not stated)
metric_name: mass density
display_unit: kg/m3
observed_value: 802.9

compound: OCc1ccccc1
metric_name: mass density
display_unit: kg/m3
observed_value: 1041.4

compound: CC(C)O
metric_name: mass density
display_unit: kg/m3
observed_value: 780.9

compound: CCCCO
metric_name: mass density
display_unit: kg/m3
observed_value: 806.5

compound: CCCC(C)O (configuration not stated)
metric_name: mass density
display_unit: kg/m3
observed_value: 805.7

compound: CCCCCO
metric_name: mass density
display_unit: kg/m3
observed_value: 811.6

compound: CCCO
metric_name: mass density
display_unit: kg/m3
observed_value: 799.3

---

details: 313.15 K, Ring tensiometer
metric_name: surface tension liquid-gas (mN/m)

compound: CCCO
display_unit: mN/m
surface tension liquid-gas: 22.1

(P) CCC(C)O (configuration not stated)
(Q) OCc1ccccc1
Request: Compare the recorded surface tension liquid-gas of P and Q ; state which is larger. Return value: the label identifying the chosen record.
Result: Q

---

conditions: 293.15 K, Ring tensiometer
metric_name: surface tension liquid-gas (mN/m)

Below, each entry is followed by its recorded surface tension liquid-gas result.
molecule: CCCCCO [pentan-1-ol]
display_unit: mN/m
observed_value: 25.69

molecule: CCCO [propan-1-ol]
display_unit: mN/m
observed_value: 23.73

molecule: CCCC(C)O (configuration not stated) [pentan-2-ol]
display_unit: mN/m
observed_value: 23.7

molecule: CCC(C)O (configuration not stated) [butan-2-ol]
display_unit: mN/m
observed_value: 23.18

molecule: CCCCO [butan-1-ol]
display_unit: mN/m
observed_value: 24.16

(I) OCc1ccccc1 [benzenemethanol]
(II) CC(C)O [propan-2-ol]
Request: Between I and II , which one has the lower reported surface tension liquid-gas value? Return value: the label identifying the chosen record.
Result: II
(II: 21.3 mN/m, I: 39.05 mN/m)

---

settings: 298.15 K, Ring tensiometer
metric_name: surface tension liquid-gas (mN/m)

Below, each entry is followed by its recorded surface tension liquid-gas result.
compound: CC(C)O
display_unit: mN/m
surface tension liquid-gas: 20.95
//
compound: CCCO
display_unit: mN/m
surface tension liquid-gas: 23.3
//
compound: CCCCCO
display_unit: mN/m
surface tension liquid-gas: 25.29
//
compound: CCCCO
display_unit: mN/m
surface tension liquid-gas: 23.7
//
compound: CCCC(C)O (configuration not stated)
display_unit: mN/m
surface tension liquid-gas: 23.28

(I) CCC(C)O (configuration not stated)
(II) OCc1ccccc1
Request: Between I and II , which one has the lower reported surface tension liquid-gas value? Return value: the label identifying the chosen record.
Result: I
(I: 22.74 mN/m, II: 38.58 mN/m)

---

conditions: 293.15 K; 101.33 kPa; Liquid
metric_name: mass density (kg/m3)

compound: CCCO
display_unit: kg/m3
mass density: 803.1
--
compound: OCc1ccccc1
display_unit: kg/m3
mass density: 1045.2
--
compound: CCCCCO
display_unit: kg/m3
mass density: 815.3
--
compound: CCCCO
display_unit: kg/m3
mass density: 810.4
--
compound: CCC(C)O (configuration not stated)
display_unit: kg/m3
mass density: 807.1
--
compound: CC(C)O
display_unit: kg/m3
mass density: 785.1
--
compound: CCCC(C)O (configuration not stated)
display_unit: kg/m3
mass density: 809.8

---

conditions: 318.15 K, Ring tensiometer
metric_name: surface tension liquid-gas (mN/m)

(a) CCCC(C)O (configuration not stated)
(b) OCc1ccccc1
Request: Between a and b , which one has the lower reported surface tension liquid-gas value? Return value: the label identifying the chosen record.
Result: a

---

conditions: 313.15 K, Ring tensiometer
metric_name: surface tension liquid-gas (mN/m)

compound: CCCCO
display_unit: mN/m
observed_value: 22.39
//
compound: CCCC(C)O (centres undefined)
display_unit: mN/m
observed_value: 22.04
//
compound: CC(C)O
display_unit: mN/m
observed_value: 19.83
//
compound: CCCCCO
display_unit: mN/m
observed_value: 24.06

---

conditions: 318.15 K, Ring tensiometer
metric_name: surface tension liquid-gas (mN/m)

compound: CCCO [propan-1-ol]
surface tension liquid-gas, mN/m: 21.68

compound: CCCCCO [pentan-1-ol]
surface tension liquid-gas, mN/m: 23.67

compound: CCCCO [butan-1-ol]
surface tension liquid-gas, mN/m: 21.99

compound: CC(C)O [propan-2-ol]
surface tension liquid-gas, mN/m: 19.47

compound: CCC(C)O (stereo not given) [butan-2-ol]
surface tension liquid-gas, mN/m: 21.11
